# Assay Remarks: Cellular Toxicity (caspase-3) NIH 3T3 (AID 666);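 note: caspase signal read after 16 h compound exposure; 0% = DMSO basal and 100% = 100 µM tamoxifen stimulation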
# Condition Parameters: NIH 3T3 caspase-3 activation, apoptosis/toxicity; series mostly up to 92.2 µM
Records with an inconclusive call do not appear. Activity calls are given as the source filed them. Calls come from the whole dose curve; as a rule, active = well fitted activation curve with a large enough effect; inconclusive = small, poorly fitted or top-dose-only effect, or effect the other way; inactive = flat fitted curve, though single readings scatter.
Use one of these outcomes when replying: Y (active), N (inactive)

1) Nc1ccccc1-c1ccccc1 | N
2) CC(C)OS(C)(=O)=O | N

Query :: Dear all, I need the recorded test outcome for CN(C)C(=O)Cl , thank you.
Result :: N

Query :: Which outcome did this test record for the compound CC12CC1(C)C(=O)N(c1cc(Cl)cc(Cl)c1)C2=O (configuration not stated) ?
Result :: N

Query :: Given C=CC=O , state the outcome it received in this test.
Result :: N

Query :: Give the logged outcome of this assay for the following compound: O=C(Cc1ccccc1)OCc1ccccc1
Result :: N

Query :: Answer briefly: the call reported for CCN(CC)N=O in this assay.
Result :: N

Query :: Query: recorded result category for CCCCC(=O)Cl in this test
Result :: N

Query :: Identify the outcome logged in this assay for the compound shown: C/C=C/C=O
Result :: N

Query :: Please share the test call associated with COC(=O)c1ccccc1N .
Result :: N

Query :: # lookup: test call for CC(=O)CCC(C)=O
Result :: N

----------
# Assay Remarks: qHTS assay for environmental chemicals that activate the Aryl hydrocarbon Receptor (AhR) signaling pathway (AID 651777); note: % of control where 0% means no effect; nearly all actives have a fitted effect of over 15% in size
# Condition Parameters: 1A2-DRE human hepatoma cells, luciferase, 24 h; hits give high values
Results filed as inconclusive are left out.
activation values by entry
Give the quantity in %, number only.

Known activation results, listed for orientation:
1. CCC(Cl)[N+](=O)[O-] (configuration not stated) | -0.0264
2. O=[N+]([O-])CCO | -2.02
3. C[N+](=O)[O-] | 0.25
4. c1ccoc1 | -0.801

Query :: Query (compound): CN(C)N=O ; field requested: activation
Result :: 0.336

Query :: For the compound c1ccc(P(c2ccccc2)c2ccccc2)cc1 , what activation is on record?
Result :: 0.491

Query :: Dear colleague, I am looking for the recorded activation of the following compound: CCN(CC)N=O
Result :: -0.0915

Query :: activation lookup needed for ClCCOCCCl , thanks.
Result :: -0.172

Query :: Any idea what activation was measured for CCCCC(CC)COC(=O)c1ccc(C(=O)OCC(CC)CCCC)c(C(=O)OCC(CC)CCCC)c1 (configuration not stated) ?
Result :: -0.0808

Query :: Request the reported activation associated with C=CCCl
Result :: 1.05

Query :: What activation value was documented for this compound, Nc1ccccc1-c1ccccc1 ?
Result :: -0.114

----------
# Target Entity: Retinoic acid receptor RXR-alpha (Homo sapiens) (UniProt P19793)
# Sequence (P19793 whole entry, looked up): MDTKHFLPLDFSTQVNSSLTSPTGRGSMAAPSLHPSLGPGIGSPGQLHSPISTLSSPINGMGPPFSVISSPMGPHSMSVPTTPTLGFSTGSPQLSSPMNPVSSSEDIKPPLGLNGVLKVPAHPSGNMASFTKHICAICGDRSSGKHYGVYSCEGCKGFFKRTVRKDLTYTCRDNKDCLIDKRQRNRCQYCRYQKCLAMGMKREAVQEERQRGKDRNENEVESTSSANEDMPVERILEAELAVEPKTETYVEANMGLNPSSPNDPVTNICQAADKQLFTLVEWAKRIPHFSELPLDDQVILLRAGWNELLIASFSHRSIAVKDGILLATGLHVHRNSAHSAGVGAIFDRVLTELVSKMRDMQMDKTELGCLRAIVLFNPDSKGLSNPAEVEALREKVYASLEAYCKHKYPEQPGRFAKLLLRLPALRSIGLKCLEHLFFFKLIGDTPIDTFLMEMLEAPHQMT
# Assay Remarks: qHTS assay for small molecule antagonists of retinoid X receptor alpha signaling (AID 588546);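 note: cells stimulated with 9-cis-retinoic acid as agonist; % is set by controls: 0 for no effect and ±100 for the full control effect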
# Condition Parameters: HEK293T RXRa-UAS-bla, beta-lactamase ratio, antagonist mode
Records with an inconclusive call do not appear.
Reported Metric: max response (%)
Give the value in % but do not write % after it.

Some solved entries appear below for comparison.
1) O=[N+]([O-])CCO | -8.95
2) ClC(Cl)c1ccccc1 | 0.971
3) Nc1cc(Cl)ccc1O | -9.48
4) CCCCOC(C)=O | 10.8
5) ClC(Cl)C(Cl)Cl | 4.18

Query :: Kindly state the measured max response obtained for Oc1ccc(Cl)c(Cl)c1 with Retinoic acid receptor RXR-alpha (Homo sapiens) (UniProt P19793).
Result :: -1

Query :: Checklist item: max response tested on Retinoic acid receptor RXR-alpha (Homo sapiens) (UniProt P19793), entry Cc1cc(Cl)ccc1O , value?
Result :: -5.53

Query :: For Retinoic acid receptor RXR-alpha (Homo sapiens) (UniProt P19793), provide max response of CC(C)CC(C)N (stereo not drawn) please.
Result :: 1.28

Query :: Give the reported max response for C=CC(=O)OCC(C)C (system: Retinoic acid receptor RXR-alpha (Homo sapiens) (UniProt P19793)).
Result :: 5.4

Query :: Hi! What's the reported max response for C=CC(=O)OCCN(C)C on Retinoic acid receptor RXR-alpha (Homo sapiens) (UniProt P19793)?
Result :: 5.11

Query :: Retinoic acid receptor RXR-alpha (Homo sapiens) (UniProt P19793) / max response / Cc1cccc(N)c1C : value?
Result :: 13.5

Query :: Return max response measured with Retinoic acid receptor RXR-alpha (Homo sapiens) (UniProt P19793) given this molecule: CC(C)(COCC1CO1)COCC1CO1 (stereo not drawn)
Result :: 6.95

Query :: Lab note: need max response for C=COC(C)=O on Retinoic acid receptor RXR-alpha (Homo sapiens) (UniProt P19793), anyone have it?
Result :: -3.99

----------
# Tested on: CP238
# Assay Remarks: qHTS profiling for inhibitors of Plasmodium falciparum proliferation (AID 504749); note: nearly all actives have a fitted effect of over 60% in size
# Condition Parameters: P. falciparum in erythrocytes, SYBR Green DNA, 72 h; series mostly up to 28.7 µM
Results filed as inconclusive are left out. Calls of active or inactive are those of the source. Calls follow the shape of the dose curve; as a rule, active = well fitted inhibition curve with a large enough effect; inconclusive = small, poorly fitted or top-dose-only effect; inactive = flat fitted curve, though single readings scatter.
Write down the outcome that applies. Available outcomes: yes = active, no = inactive

Worked examples, 3 molecules total:
1. C[C@@H]1O[C@@H](O[C@H]2C[C@@H](O)[C@@]3(CO)[C@H]4[C@H](O)C[C@]5(C)[C@@H](C6=CC(=O)OC6)CC[C@]5(O)[C@H]4CC[C@@]3(O)C2)[C@@H](O)[C@H](O)[C@H]1O | no
2. C=C[C@@H]1CN2CC[C@H]1C[C@H]2[C@H](O)c1ccnc2ccccc12 | yes
3. C[N+]1(C)C2CC[C@H]1CC(OC(=O)[C@@H](CO)c1ccccc1)C2 (stereo not given in full) | no

Query :: Tell me the assay call for C[N+]1([O-])[C@H]2CC[C@H]1CC(OC(=O)[C@@H](CO)c1ccccc1)C2 (stereo not given in full) please.
Result :: no

Query :: Record lookup: outcome of this test for C[C@@H](Cc1ccc(O)cc1)NC[C@@H](O)c1cc(O)cc(O)c1 ?
Result :: no

----------
# Assay Remarks: qHTS assay for small molecule antagonists of the retinoid-related orphan receptor gamma (ROR-gamma) signaling pathway - cell viability counter screen (AID 720652);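 note: CHO reporter cells with doxycycline-induced ROR-gamma expression; compound exposure lasted 16 hr before ATP read; % is set by controls: 0 for no effect and ±100 for the full control effect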
# Condition Parameters: RORgamma reporter cell line viability counter screen; series mostly up to 92.2 µM
Results filed as inconclusive are left out. Calls of active or inactive are those of the source. The call rests on the fitted dose curve; in most records, active means well fitted cell-killing curve with a large enough effect in the repeat runs; inconclusive means weak or mixed curves, or effect the other way; inactive means flat fitted curve, though single readings scatter.
The reply should name one outcome from active, inactive

1. C=CCO | inactive
2. CCSC(=O)N1CCCCCC1 | inactive
3. N#CCc1ccccc1 | inactive
4. Oc1cc(Cl)cc(Cl)c1 | inactive
5. Cc1cccc(N)c1C | inactive
6. O=[N+]([O-])c1cc(Cl)c(Cl)cc1Cl | inactive
7. CC(C)(OOC(C)(C)c1ccccc1)c1ccccc1 | inactive
8. CC(C)CC(C)N (stereo unspecified) | inactive
9. ClC(Cl)c1ccccc1 | inactive
10. NNC(N)=S | inactive

Proceed to the following item.
Query :: Which outcome did this test record for the compound C=CCBr ?
Result :: inactive

----------
Quick reference for activation among some molecules
# Assay Remarks: qHTS assay for small molecule activators of the nuclear factor-kappa B (NF-kB) signaling pathway (AID 651749); note: % of control where 0% means no effect
# Condition Parameters: NF-kB-bla ME-180 cells, beta-lactamase FRET ratio, 16 h; hits give high values
Inconclusive results are not listed.
Numeric answer only, unit % assumed.

1) c1ccc(P(c2ccccc2)c2ccccc2)cc1 | -0.914
2) O=NN1CCCCC1 | -0.849
3) N#CC(O)c1ccccc1 (stereo not given) | 0.595
4) c1ccc(OCC2CO2)cc1 (stereo not given) | 0.652
5) Cc1cccc(N)c1C | -0.847

Query :: Look up activation for this molecule: OCCCCO
Result :: -0.721

Query :: Need activation of c1ccc2c(c1)CCNC2 , thanks.
Result :: 0.526

Query :: Entry C=CC(=O)OCC(C)C has what activation?
Result :: 0.0391

Query :: # lookup: activation of COc1ccc(C=O)cc1
Result :: -0.721

Query :: Which activation is listed for ClCCOCOCCCl ?
Result :: -0.753

Query :: Returns the measured activation for the input molecule. Input: ClP(Cl)(Cl)(Cl)Cl
Result :: -0.207

Query :: Data request, read-out activation, for CCC#N
Result :: -1.07

Query :: Value lookup for activation; key = N#CCBr
Result :: 0.342

Query :: Look at this molecule and give its reported activation. Cc1cc(Cl)ccc1O
Result :: 0.374

Query :: Field request: activation | item: O=[N+]([O-])c1cccc(CCl)c1
Result :: 1.19

----------
# Assay Remarks: Cell Viability - LYMP2-008 (AID 980);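 note: cells exposed to compound for 24 h at 37 °C; % is set by controls: 0 for no effect and ±100 for the full control effect; nearly all actives have a fitted effect of over 60% in size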
# Condition Parameters: LYMP2-008 lymphoblastoid cell viability, qHTS; series mostly up to 92.2 µM
Results filed as inconclusive are left out. Active and inactive are the calls of the source. Calls come from the whole dose curve; as a rule, active = well fitted cell-killing curve with a large enough effect; inconclusive = small, poorly fitted or top-dose-only effect; inactive = flat fitted curve, though single readings scatter.
Reported Metric: outcome

For orientation, consider the following solved cases.
1) O=C(O)CCl | inactive
2) Nc1ccc(-c2ccc(N)c(Cl)c2)cc1Cl | inactive
3) Clc1cc(Cl)c(Cl)c(Cl)c1 | inactive
4) CCCN(CCC)c1c([N+](=O)[O-])cc(C(F)(F)F)cc1[N+](=O)[O-] | inactive
5) N#CCCC#N | inactive
6) CCCCC#N | inactive

Query :: Look up outcome for this compound: CC(C)(Cl)[N+](=O)[O-]
Result :: inactive

Query :: So what's the measured outcome for this one? O=C(O)C(Br)Br
Result :: inactive

Query :: For the compound CC(C)OS(C)(=O)=O , what outcome is on record?
Result :: inactive

Query :: Endpoint output: outcome of C=CCOCC1CO1 (stereo not drawn) . Value?
Result :: inactive

Query :: Return reported outcome; argument: CCCCOCC1CO1 (stereo not drawn)
Result :: inactive

Reference for the values: PubChem BioAssay (NCATS)
